Data provenance: the RNAGym collection of RNA variant scans (doi:10.7554/elife.80360)

B1: HDV Ribozyme (parent)
chain: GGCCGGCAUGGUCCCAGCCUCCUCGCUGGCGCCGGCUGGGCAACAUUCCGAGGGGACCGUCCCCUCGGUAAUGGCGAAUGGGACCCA

Variants of: B1
Test: self-cleavage, relative activity (ratio to wild type); higher = more cleavage; co-transcriptional
For each entry below, report its self-cleavage value.
Give bare numbers.

| mutant | property-measured | readout-number |
| --- | --- | --- |
| A16C U65A | self-cleavage | 0.65 |

List reported self-cleavage for each of these variants:
1. G39A C62U
2. G11U A78C
3. G52A C86G
4. C7A U60G
5. G31U C41U
6. C62A A87U

Given back:
1: 0.508; 2: 0.02; 3: 1.04; 4: 0.356; 5: 0.151; 6: 0.984

List reported self-cleavage for each of these variants:
1. U23C U65G
2. C49G C61A
3. U9A U23G
4. G38U G68U
5. G10U U69C
6. A8U G40U

Given back:
0.95
0.848
0.7
0.119
0.656
0.415

List reported self-cleavage for each of these variants:
1. C4G U20G
2. G68C C84A
3. C7G G50U
4. U20A U60C
5. C63U A87C
6. A42G U60C

Given back:
0
1.06
0.237
0
0.894
0.617

List reported self-cleavage for each of these variants:
1. G67A G73A
2. G2C C36U

Given back:
[0.492, 0.0799]
